assayed.target: T1, human CD30 (commercial, conjugated to digoxigenin) (human, UniProt P28908 19-379, limits assumed, conjugated to digoxigenin (DIG))
T1 sequence (looked up): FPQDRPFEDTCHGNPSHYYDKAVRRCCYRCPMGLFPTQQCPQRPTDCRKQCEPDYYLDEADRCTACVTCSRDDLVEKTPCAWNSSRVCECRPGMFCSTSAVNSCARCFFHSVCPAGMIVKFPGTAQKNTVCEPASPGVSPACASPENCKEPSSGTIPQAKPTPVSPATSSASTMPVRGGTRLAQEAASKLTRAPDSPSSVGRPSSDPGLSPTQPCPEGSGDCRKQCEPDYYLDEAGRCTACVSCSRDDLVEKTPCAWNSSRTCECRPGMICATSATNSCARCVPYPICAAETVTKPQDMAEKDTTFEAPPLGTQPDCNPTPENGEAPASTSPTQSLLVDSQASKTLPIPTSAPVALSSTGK
assay.overview: AlphaScreen competition vs biotin-WT AC10

- binder: "AC10 H2/L3 full length antibody (antibody, V domains shown) VH: QIQLVESGGGLVKPGGSLRLSCAASGYTFTDYYITWVRQAPGQGLEWMGWIYPGSGNTKYNEKFQGRVTMTVDTSTSTAYMELSSLRSEDTAVYFCANYGNYWFAYWGQGTLVTVSS VL: DIVLTQSPDSLAVSLGERATINCKASQSVDFDGDSYMNWYQQKPGQPPKVLIYAASNLESGIPARFSGSGSGTDFTLTINSLEAEDAATYYCQQSNEDPWTFGGGTKVEIK"
  unit.name: "nM"
  IC50: 27.2
- binder: "AC10 H3/L2 full length antibody (antibody, V domains shown) VH: QIQLVQSGPEVKKPGASVKVSCKASGYTFTDYYITWVRQAPGQGLEWMGWIYPGSGNTKYNEKFQGRFVFSVDTSASTAYLQISSLKAEDTAVYFCANYGNYWFAYWGQGTLVTVSS VL: DIVLTQSPSSLSASVGDRVTITCRASQSVDFDGDSYMNWYQQKPGQPPKVLIYAASNLESGIPARFSGSGSGTDFTLTISSLQPEDFATYYCQQSNEDPWTFGGGTKVEIK"
  unit.name: "nM"
  IC50: 6.57
